Listing of recorded CMV-LACZ in Myotubes, signal relative to DMSO by entry.
Test system: β-galactosidase in CMV-LacZ C2C12 myotubes
protocol: CMV-LacZ secondary screen in C2C12 myotubes (β-Gal stabilizing assay)
Assay type: cell-based, mouse
assayContext: 1 uM; C2C12 CMV-LacZ myotubes; fold relative to DMSO
Just the number, please.

Nc1cccc(/C=C/C(=O)O)c1 [MLS000777780-01]: 0.8838

Exam item: Fill blank: measured CMV-LACZ in Myotubes, signal relative to DMSO of the compound COc1ccc(CCNC(=O)Cn2nnc(C(=O)Nc3ccc(Br)cc3)c2N)cc1OC [MLS000912699-01] is ____.
Marked response: 0.9859

Exam item: Fill blank: measured CMV-LACZ in Myotubes, signal relative to DMSO of the compound CC(=O)Nc1ccc(NC(=O)C/C(C)=N/NC(=O)COc2cc(C)c(Br)cc2Br)cc1 [MLS000912562-01] is ____.
Marked response: 0.8924
